Target: T1, corticotropin releasing factor 2 receptor
T1 sequence (Q13324 whole entry, species assumed, looked up): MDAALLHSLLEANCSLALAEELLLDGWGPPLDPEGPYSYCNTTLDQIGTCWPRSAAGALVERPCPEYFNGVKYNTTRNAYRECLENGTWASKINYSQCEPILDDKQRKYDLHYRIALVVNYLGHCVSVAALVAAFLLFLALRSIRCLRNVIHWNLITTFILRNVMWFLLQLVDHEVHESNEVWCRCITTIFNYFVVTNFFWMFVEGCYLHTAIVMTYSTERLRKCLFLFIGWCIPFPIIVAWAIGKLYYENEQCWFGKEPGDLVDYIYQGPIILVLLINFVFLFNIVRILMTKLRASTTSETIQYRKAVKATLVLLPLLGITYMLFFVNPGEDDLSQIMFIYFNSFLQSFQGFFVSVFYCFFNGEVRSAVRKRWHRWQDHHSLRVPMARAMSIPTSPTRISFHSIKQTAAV
Assay: cell-based or functional assay
Ends that are not written are not given here.
# cutoff 70 nM applies to CRF2R EC50; >= gives condition met, < gives condition not met

INPUT: Is CRF2R EC50 for DNPSLSIDLPLLLLRTLLELARTQSQRERAEQNAIIFASV-NH2 [SEQ ID NO 174] at or above 70 nM?
OUTPUT: condition not met

INPUT: Check the entry ZGPPISIDLPIPLLRKMIEIEKQEKEKQQAANNRLLLDTI (not fully specified; C-terminal amide) [SEQ ID NO 26] : does CRF2R EC50 equal or exceed 70 nM?
OUTPUT: condition met

INPUT: Please indicate if the recorded CRF2R EC50 for ZGPPISIDLPEYLLRKMIEIEKQEKEKQQAANNRLLLDTI (C-terminal amide) [SEQ ID NO 48] meets or exceeds 70 nM.
OUTPUT: condition met

INPUT: Is reported CRF2R EC50 greater than or equal to 70 nM here: ZGPPISIDLPIWLLRKMIEIEKQEKEKQQAANNRLLLDTI (C-terminal amide) [SEQ ID NO 192]
OUTPUT: condition not met

INPUT: Confirm if CRF2R EC50 reported for the binder ZGPPISIDLPLHLLRKMIEIEKQEKEKQQAANNRLLLDTI (C-terminal amide) [SEQ ID NO 83] is 70 nM or above.
OUTPUT: condition not met

INPUT: Hello, I need to know if ZGPPISIDLPLELLRKMIEIEKQEKEKQQATTNARILARV (C-terminal amide) [SEQ ID NO 143] has measured CRF2R EC50 not below 70 nM. Thanks!
OUTPUT: condition not met

INPUT: Has IVLSLDVPIGLLQILLEQRRAAREQATTNARILARV-NH2 [SEQ ID NO 133] a recorded CRF2R EC50 greater than or equal to 70 nM?
OUTPUT: condition not met

INPUT: Could you please find out whether SQEPPISLDLPFELLREVLEMTKADQLAQQAHSNRKLLDIA-NH2 [SEQ ID NO 97] has CRF2R EC50 that meets 70 nM or exceeds it?
OUTPUT: condition met

INPUT: Textbook exercise: given the entry ZGPPISIDLPYYLLRKMIEIEKQEKEKQQAANNRLLLDTI (C-terminal amide) [SEQ ID NO 40] , state whether its CRF2R EC50 is greater than or equal to 70 nM.
OUTPUT: condition not met

INPUT: Assess whether reported CRF2R EC50 for ZGPPISIDLPVYLLRKMIEIEKQEKEKQQAANNRLLLDTI (C-terminal amide) [SEQ ID NO 39] sits at 70 nM or higher.
OUTPUT: condition not met

INPUT: Hi team, for ZGPPISIDLPIKLLRKMIEIEKQEKEKQQAANNRLLLDTI (C-terminal amide) [SEQ ID NO 34] , is the recorded CRF2R EC50 at or above 70 nM?
OUTPUT: condition met

INPUT: Could you please find out whether ZGPPISIDLPLYLLRKMIEIEKQEKEKQQAANNRLLLDT (C-terminal amide) [SEQ ID NO 81] has CRF2R EC50 that meets 70 nM or exceeds it?
OUTPUT: condition not met

INPUT: Hi, just wondering whether SQEPPISLDLPLGLLREVLEMTKADQLAQQAHSNRKLLDIA-NH2 [SEQ ID NO 90] shows CRF2R EC50 of 70 nM or higher.
OUTPUT: condition met

INPUT: Given the entry ZGPPISIDLPQLLLRKMIEIEKQEKEKQQAANNRLLLDTI (C-terminal amide) [SEQ ID NO 196] , answer whether its CRF2R EC50 meets or surpasses 70 nM.
OUTPUT: condition not met

INPUT: Does the reported CRF2R EC50 for ZGPPISIDLPGYLLRKMIEIEKQEKEKQQAANNRLLLDTI (C-terminal amide) [SEQ ID NO 63] fall at or above the 70 nM mark?
OUTPUT: condition not met

INPUT: // inclusive: CRF2R EC50 at least 70 nM? input: IVLSLDVPIGLLQILIEIEKQEKEKQQAANNARILARV-NH2 [SEQ ID NO 166]
OUTPUT: condition not met

INPUT: State whether the measured CRF2R EC50 reaches 70 nM, counting equality as reaching it, for IVLSLDVPIGLLQILLEQAKARAAREQATTNARILARV-NH2 [SEQ ID NO 127]
OUTPUT: condition not met

INPUT: Assess whether reported CRF2R EC50 for IVLSLDVPIGLLQILLEQERQEAAREQATTNARILARV-NH2 [SEQ ID NO 118] sits at 70 nM or higher.
OUTPUT: condition not met

INPUT: Does CRF2R EC50 meet or surpass 70 nM for ZGPPISIDLSLELLRKMIEIEKQEKEKQQAANNALLLATI (C-terminal amide) [SEQ ID NO 30] ?
OUTPUT: condition not met

INPUT: # check: CRF2R EC50 of ZGPPISIDLPYLLLRKMIEIEKQEKEKQQAANNRLLLDTI (C-terminal amide) [SEQ ID NO 203] is greater than or equal to 70 nM
OUTPUT: condition not met

INPUT: Does the reported CRF2R EC50 for IVLSLDVPIGLLQILLEMTKADQLAQQAHSNRKLLDIA-NH2 [SEQ ID NO 155] fall at or above the 70 nM mark?
OUTPUT: condition not met

INPUT: Would you say ZGPPISIDLPTQLLRKMIEIEKQEKEKQQAANNRLLLDTI (C-terminal amide) [SEQ ID NO 72] shows CRF2R EC50 at minimum 70 nM?
OUTPUT: condition met

INPUT: Quick check, CRF2R EC50 >= 70 nM? SQEPPISLDLPLELLREVLEMTKADQLAQQAHSNRKLLDIA-NH2 [SEQ ID NO 89]
OUTPUT: condition met
